Where do these numbers come from? They come from the supplement of paper PMC12645437.

- Assayed target: T1, CRBN, Q96SW2;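 also: pooled lentiviral library of zinc finger degron-EGFP fusions in mCherry-positive Jurkat cells, FACS-sorted after compound exposure, with degron abundance counted by next-generation sequencing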
- T1 chain: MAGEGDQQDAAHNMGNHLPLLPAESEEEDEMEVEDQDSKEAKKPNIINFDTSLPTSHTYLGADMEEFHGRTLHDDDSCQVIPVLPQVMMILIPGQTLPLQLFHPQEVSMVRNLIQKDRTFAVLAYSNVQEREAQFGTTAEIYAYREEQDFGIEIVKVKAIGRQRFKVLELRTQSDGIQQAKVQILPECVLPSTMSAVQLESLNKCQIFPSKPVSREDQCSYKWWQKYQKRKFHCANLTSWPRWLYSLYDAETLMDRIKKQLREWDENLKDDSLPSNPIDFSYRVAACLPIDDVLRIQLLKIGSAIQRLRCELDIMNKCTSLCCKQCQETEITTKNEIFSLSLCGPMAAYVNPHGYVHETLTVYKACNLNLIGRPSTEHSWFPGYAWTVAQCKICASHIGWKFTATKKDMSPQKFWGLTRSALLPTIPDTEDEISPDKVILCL
- Experiment notes: log2 fold change of degron read counts, EGFP-low vs EGFP+ sorted cells (limma voom), compound-induced degradation; higher = more compound-induced degradation of the degron-EGFP fusion; degrons are variants of IKZF1/3 zinc finger 2; compound dose not given here
- Measurement context: Jurkat; 18 h; compound: compound 33 (diphenyl IMiD analogue)
In all, about 8,300 sequences were measured (“log2 fold change of degron read counts, EGFP-low vs EGFP+ sorted cells (limma voom), compound-induced degradation”: median about -1.1, highest 2% from about 3.2 on). What follows is part of a selection rich in the highest values, with near analogues and random picks from the rest.
log2 fold change of degron read counts: recorded values

The cases that follow already have their log2 fold change of degron read counts on record.
FMCEICGRLFTQKGNLLRHIKL [46F_47M_49E_50I_52G_53R_54L_55F_67L_, Q9UKT9]; -1.18
FWCDICGAPFTQKGNLLRHIKL [46F_47W_49D_50I_52G_53A_54P_55F_67L_, Q9UKT9]; 1.2
FDCPICGHIFTQKGNLLRHIKL [46F_47D_49P_50I_52G_53H_54I_55F_67L_, Q9UKT9]; -1.8
FYCEICGRCFTQKGNLLRHIKL [46F_47Y_49E_50I_52G_53R_54C_55F_67L_, Q9UKT9]; 1.13
FVCPICGRNFTQKGNLLRHIKL [46F_47V_49P_50I_52G_53R_54N_55F_67L_, Q9UKT9]; -0.308
FSCDICGAAFTQKGNLLRHIKL [46F_47S_49D_50I_52G_53A_54A_55F_67L_, Q9UKT9]; 1.4

Let's switch to this sequence now.
// log2 fold change of degron read counts lookup, key: FRCNQCGHLFTQKGNLLRHIKL [46F_47R_49N_50Q_52G_53H_54L_55F_67L_, Q9UKT9] -2.46
